FYI, the data here is from the supplement of paper PMC8728848.

molecular target: Neu5Ac(a2-3)Gal(b1-4)GlcNAc(b1-3)Gal(b1-4)GlcNAc(b1-3)Gal(b1-4)GlcNAc; assay: glycan array binding signal (z-score within array); higher = stronger binding; settings: glycan notation: IUPAC condensed, linker removed
The entries come from a sample that favours the strongest signals as a whole.
In this section, each of the binders is paired with its reported glycan array binding signal (z-score).
metric-name: glycan array binding signal (z-score)

1. LTL (Lotus tetragonolobus), P19664 (protein) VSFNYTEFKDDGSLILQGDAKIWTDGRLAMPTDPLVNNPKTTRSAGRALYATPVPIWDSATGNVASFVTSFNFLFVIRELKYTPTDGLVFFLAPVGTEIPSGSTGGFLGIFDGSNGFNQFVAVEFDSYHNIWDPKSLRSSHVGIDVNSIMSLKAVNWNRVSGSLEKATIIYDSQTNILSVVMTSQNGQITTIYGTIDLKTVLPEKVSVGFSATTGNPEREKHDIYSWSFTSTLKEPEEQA : -0.035
2. Gal 4 (Canis lupus) (protein) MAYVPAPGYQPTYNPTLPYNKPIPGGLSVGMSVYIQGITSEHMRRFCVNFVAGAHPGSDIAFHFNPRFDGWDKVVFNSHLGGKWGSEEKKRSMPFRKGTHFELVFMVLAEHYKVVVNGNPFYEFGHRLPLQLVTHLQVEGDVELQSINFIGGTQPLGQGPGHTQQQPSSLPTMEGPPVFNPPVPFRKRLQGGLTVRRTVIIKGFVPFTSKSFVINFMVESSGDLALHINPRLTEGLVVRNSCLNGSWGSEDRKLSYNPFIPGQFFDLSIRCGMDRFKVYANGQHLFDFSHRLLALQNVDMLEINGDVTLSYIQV : -0.153
3. Gal 8 (Homo sapiens) (protein) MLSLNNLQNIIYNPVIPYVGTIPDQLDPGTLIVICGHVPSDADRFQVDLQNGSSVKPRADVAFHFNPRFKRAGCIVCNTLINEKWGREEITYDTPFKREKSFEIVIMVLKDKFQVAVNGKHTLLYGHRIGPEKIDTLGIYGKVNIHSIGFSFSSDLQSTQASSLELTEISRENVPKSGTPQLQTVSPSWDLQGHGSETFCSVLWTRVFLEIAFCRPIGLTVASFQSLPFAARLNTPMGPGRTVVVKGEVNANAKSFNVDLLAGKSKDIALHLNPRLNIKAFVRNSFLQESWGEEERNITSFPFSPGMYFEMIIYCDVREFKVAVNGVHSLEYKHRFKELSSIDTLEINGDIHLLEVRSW : 2.12
4. HPA (Helix pomatia), Q575S3 (protein) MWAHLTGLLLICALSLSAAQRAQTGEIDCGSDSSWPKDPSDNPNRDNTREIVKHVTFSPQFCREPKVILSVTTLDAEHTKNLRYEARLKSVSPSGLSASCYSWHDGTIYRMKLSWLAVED : -0.265
5. DGL (Dioclea grandiflora), P08902 (protein) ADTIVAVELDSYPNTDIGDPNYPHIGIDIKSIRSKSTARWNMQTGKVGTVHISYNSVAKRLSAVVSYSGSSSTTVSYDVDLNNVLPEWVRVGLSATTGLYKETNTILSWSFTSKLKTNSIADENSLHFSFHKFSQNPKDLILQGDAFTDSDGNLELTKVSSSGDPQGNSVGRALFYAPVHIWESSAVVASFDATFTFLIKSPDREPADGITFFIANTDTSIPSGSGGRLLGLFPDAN : -0.183
